The reported measurements were obtained from patent US12098144B2.

# Measurement target: glucocorticoid receptor (Homo sapiens)
# Construct: endogenous in cells; ATCC cat
# Method summary: Hep G2 TAT Ki: inhibition of dexamethasone-induced TAT in HepG2 cells (96 well)
# Study conditions: challenge of 100 nM dexamethasone, IC50 converted to Ki by Cheng and Prusoff equation
Note to self: use MET only for Ki readings below 0.04 µM; a reading exactly at 0.04 µM still gets NOT MET.

>  <Molecule>
Cc1cc2c(cnn2-c2ccc(F)cc2)cc1C1CN(S(=O)(=O)c2cnn(C)n2)CCN1CC(C)C(F)(F)F (single isomer, unassigned) [Example 33]

>  <Class name>
MET

$$$$
>  <Molecule>
Cc1cc2c(cnn2-c2ccc(F)cc2)cc1C1CN(S(=O)(=O)c2ccccn2)CCN1CCC(F)(F)F (single isomer, unassigned)

>  <Class name>
MET

$$$$
>  <Molecule>
Cc1cc2c(cnn2-c2ccc(F)cc2)cc1C1CN(S(=O)(=O)c2ccc(C#N)cc2)CCN1CC(C)C (single isomer, unassigned)

>  <Class name>
MET

$$$$
>  <Molecule>
CC(C)CN1CCN(S(=O)(=O)c2cnn(C)n2)CC1c1cc2cnn(-c3ccc(F)cc3)c2cc1C(F)(F)F (stereo not drawn)

>  <Class name>
NOT MET

$$$$
>  <Molecule>
Cc1cc2c(cnn2-c2ccc(F)cc2)cc1C1CN(S(=O)(=O)c2cnn(C(C)C)n2)CCN1CC(C)C (stereo not drawn)

>  <Class name>
NOT MET

$$$$

---

# Measurement target: glucocorticoid receptor (Homo sapiens)
# Construct: endogenous in cells; ATCC cat
# Sequence (P04150 1-777): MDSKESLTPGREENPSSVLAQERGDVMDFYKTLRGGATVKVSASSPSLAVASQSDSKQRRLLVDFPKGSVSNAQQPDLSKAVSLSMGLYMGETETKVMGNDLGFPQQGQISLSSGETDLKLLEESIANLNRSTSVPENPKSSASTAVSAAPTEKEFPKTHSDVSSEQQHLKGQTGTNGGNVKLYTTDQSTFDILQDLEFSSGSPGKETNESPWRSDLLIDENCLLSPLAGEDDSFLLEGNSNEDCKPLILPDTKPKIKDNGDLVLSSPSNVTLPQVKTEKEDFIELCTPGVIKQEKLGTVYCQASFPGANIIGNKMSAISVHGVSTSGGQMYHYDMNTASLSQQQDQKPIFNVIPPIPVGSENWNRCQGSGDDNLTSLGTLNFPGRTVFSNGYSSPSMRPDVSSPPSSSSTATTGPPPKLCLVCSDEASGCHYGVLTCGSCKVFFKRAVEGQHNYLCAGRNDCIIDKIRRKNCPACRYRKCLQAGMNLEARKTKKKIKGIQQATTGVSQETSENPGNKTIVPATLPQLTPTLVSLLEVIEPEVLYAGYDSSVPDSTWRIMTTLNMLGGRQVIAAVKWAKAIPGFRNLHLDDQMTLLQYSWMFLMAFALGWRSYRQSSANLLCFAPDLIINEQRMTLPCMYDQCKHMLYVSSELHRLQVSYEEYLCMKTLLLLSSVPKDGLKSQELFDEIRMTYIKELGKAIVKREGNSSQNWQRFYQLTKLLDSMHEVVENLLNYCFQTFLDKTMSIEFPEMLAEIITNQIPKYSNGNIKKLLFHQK
# Method summary: Hep G2 TAT Ki: inhibition of dexamethasone-induced TAT in HepG2 cells (96 well)
# Study conditions: challenge of 100 nM dexamethasone, IC50 converted to Ki by Cheng and Prusoff equation
pKi: −log10 of the molar value.
Quantity: pKi

>  <Compound>
Cc1cc2c(cnn2-c2ccc(F)cc2)cc1C1CN(S(=O)(=O)c2ncn(C)n2)CCN1CC(C)C (single isomer, unassigned)

>  <Measurement target>
glucocorticoid receptor (Homo sapiens)

>  <Test result>
7.07

$$$$
>  <Compound>
Cc1cc2c(cnn2-c2ccc(F)cc2)cc1C1CN(S(=O)(=O)c2cnn(C)n2)CCN1CC(C)C (single isomer, unassigned) [Example 10]

>  <Measurement target>
glucocorticoid receptor (Homo sapiens)

>  <Test result>
6.37

$$$$
>  <Compound>
Cc1cc2c(cnn2-c2ccc(F)cc2)cc1C1CN(S(=O)(=O)c2cnn(C)n2)CCN1Cc1ccon1 (single isomer, unassigned) [Example 81]

>  <Measurement target>
glucocorticoid receptor (Homo sapiens)

>  <Test result>
7.14

$$$$
>  <Compound>
Cc1cc2c(cnn2-c2ccc(F)c(C#N)c2)cc1C1CN(S(=O)(=O)c2cnn(C)n2)CCN1CCC(F)(F)F (single isomer, unassigned) [Example 169]

>  <Measurement target>
glucocorticoid receptor (Homo sapiens)

>  <Test result>
7.18

$$$$
>  <Compound>
COCCS(=O)(=O)N1CCN(CC(C)C)C(c2cc3cnn(-c4ccc(F)cc4)c3cc2C)C1 (single isomer, unassigned) [Example 60]

>  <Measurement target>
glucocorticoid receptor (Homo sapiens)

>  <Test result>
7.55

$$$$
>  <Compound>
CCn1cc(S(=O)(=O)N2CCN(CCC(F)(F)F)C(c3cc4cnn(-c5ccc(F)cc5)c4cc3C)C2)cn1 (single isomer, unassigned)

>  <Measurement target>
glucocorticoid receptor (Homo sapiens)

>  <Test result>
7.89

$$$$
>  <Compound>
Cc1cc2c(cnn2-c2ccc(F)cc2)cc1C1CN(S(=O)(=O)CC(C)C)CCN1CCC(F)(F)F (single isomer, unassigned)

>  <Measurement target>
glucocorticoid receptor (Homo sapiens)

>  <Test result>
7.48

$$$$
>  <Compound>
Cc1ncc(S(=O)(=O)N2CCN(CC(C)C(F)(F)F)C(c3cc4cnn(-c5ccc(F)cc5)c4cc3C)C2)s1 (single isomer, unassigned)

>  <Measurement target>
glucocorticoid receptor (Homo sapiens)

>  <Test result>
7.96

$$$$
>  <Compound>
CC(C)=CCN1CCN(S(=O)(=O)c2cnn(C)n2)CC1c1cc2cnn(-c3ccc(F)cc3)c2cc1C (stereo not drawn)

>  <Measurement target>
glucocorticoid receptor (Homo sapiens)

>  <Test result>
6.96

$$$$
>  <Compound>
Cc1cc2c(cnn2-c2ccc(F)cc2)cc1C1CN(S(=O)(=O)CC2CC2)CCN1CC(C)C (single isomer, unassigned) [Example 51]

>  <Measurement target>
glucocorticoid receptor (Homo sapiens)

>  <Test result>
7.55

$$$$
>  <Compound>
CC(C)CN1CCN(S(=O)(=O)c2cnn(C)n2)CC1c1cc2cnn(-c3ccc(F)cc3)c2cc1F (stereo not drawn)

>  <Measurement target>
glucocorticoid receptor (Homo sapiens)

>  <Test result>
6.66

$$$$
>  <Compound>
Cc1cc2c(cnn2-c2ccc(F)cc2)cc1[C@H]1CN(S(=O)(=O)c2cnn(C)n2)C[C@@H](C)N1CC(C)C (relative stereo) [Example 127]

>  <Measurement target>
glucocorticoid receptor (Homo sapiens)

>  <Test result>
7.66

$$$$

---

# Measurement target: glucocorticoid receptor (Homo sapiens)
# Construct: endogenous in cells; ATCC cat
# Sequence (P04150 1-777): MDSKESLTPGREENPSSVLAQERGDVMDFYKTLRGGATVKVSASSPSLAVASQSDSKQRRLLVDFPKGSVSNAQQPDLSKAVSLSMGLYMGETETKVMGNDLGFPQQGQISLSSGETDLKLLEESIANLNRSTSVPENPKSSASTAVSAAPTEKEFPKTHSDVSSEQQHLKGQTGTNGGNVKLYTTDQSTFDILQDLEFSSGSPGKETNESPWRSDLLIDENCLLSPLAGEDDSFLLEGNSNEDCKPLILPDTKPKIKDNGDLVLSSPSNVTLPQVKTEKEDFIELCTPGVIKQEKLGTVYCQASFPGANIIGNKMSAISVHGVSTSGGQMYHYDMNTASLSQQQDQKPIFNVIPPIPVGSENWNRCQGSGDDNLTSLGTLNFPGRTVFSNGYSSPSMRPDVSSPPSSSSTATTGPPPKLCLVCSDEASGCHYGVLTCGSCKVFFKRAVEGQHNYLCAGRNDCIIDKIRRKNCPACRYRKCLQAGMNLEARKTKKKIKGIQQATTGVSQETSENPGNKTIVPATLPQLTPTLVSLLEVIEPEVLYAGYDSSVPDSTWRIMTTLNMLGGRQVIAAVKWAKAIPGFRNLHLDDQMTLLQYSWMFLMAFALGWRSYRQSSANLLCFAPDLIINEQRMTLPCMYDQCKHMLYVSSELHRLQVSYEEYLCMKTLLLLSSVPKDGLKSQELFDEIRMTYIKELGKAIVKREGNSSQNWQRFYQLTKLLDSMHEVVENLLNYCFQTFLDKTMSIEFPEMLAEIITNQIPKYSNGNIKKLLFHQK
# Method summary: Hep G2 TAT Ki: inhibition of dexamethasone-induced TAT in HepG2 cells (96 well)
# Study conditions: challenge of 100 nM dexamethasone, IC50 converted to Ki by Cheng and Prusoff equation
pKi: −log10 of the molar value.
As shown below, each of these molecules has a reported pKi value.

>  <Molecule>
Cc1cc2c(cnn2-c2ccc(F)cc2)cc1C1CN(S(=O)(=O)c2cnn(C)n2)CCN1CC1(F)CC1 (single isomer, unassigned) [Example 73]

>  <Measurement target>
glucocorticoid receptor (Homo sapiens)

>  <pKi>
6.77

$$$$
>  <Molecule>
Cc1cc2c(cnn2-c2ccc(F)cc2)cc1C1CN(S(=O)(=O)c2cnccc2C)CCN1CCC(F)(F)F (single isomer, unassigned)

>  <Measurement target>
glucocorticoid receptor (Homo sapiens)

>  <pKi>
7.46

$$$$
>  <Molecule>
CCn1cc(S(=O)(=O)N2CCN(CC(C)C(F)(F)F)C(c3cc4cnn(-c5ccc(F)cc5)c4cc3C)C2)cn1 (single isomer, unassigned)

>  <Measurement target>
glucocorticoid receptor (Homo sapiens)

>  <pKi>
7.82

$$$$
